- protocol-text: NCI Yeast Anticancer Drug Screen. Data for the mec2-1 strain (AID 157)
- settings: S. cerevisiae mec2-1 strain, at 50.0 µM, stronger effect = higher value
- Method: Growth inhibition of yeast strains with defined genetic alterations is measured as a screen for potential anti-cancer activity. Selected strains with alterations in DNA damage repair or cell cycle control were exposed to compounds and growth inhibition was measured relative to vehicle treated controls. The strain used in this assay is mec2-1
Compounds without any hit were thinned out: in the full panel of roughly 79,000, 15% have a hit.
Label NOT MET if growth inhibition falls below 50%; label MET in every other case.

{"molecule": "COc1c(C(=O)/C(=N/Nc2ccccc2)C(C)=O)c(O)c(OC)c2occc12", "category": "MET"}

Ask | Has N#CC(C(=O)CCCC(=O)Nc1cccc([N+](=O)[O-])c1)c1cccc2ccccc12 (configuration not stated) a recorded growth inhibition greater than or equal to 50%?
Reply | NOT MET

Ask | Has O=C(O)CCC(O)=C1S(=O)(=O)OCCOS1(=O)=O a recorded growth inhibition greater than or equal to 50%?
Reply | NOT MET

----------
- protocol-text: NCI Yeast Anticancer Drug Screen. Data for the cln2 rad14 strain (AID 165);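 also: 0% = growth equal to vehicle treated cultures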
- settings: S. cerevisiae cln2 rad14 strain, at 5.0 µM (retest, dose inferred, filed as 0.5), stronger effect = higher value
About 79,000 compounds went through this panel and 15% of them were active in at least one assay; those are over-represented in the sample as a whole.
Entries and their growth inhibition values follow.
// return numeric value only (unit: %, not printed)

Worked set:
{"molecule": "OC(c1cc(-c2ccccc2)nc2cc(Cl)ccc12)C1CCCCN1 (centres undefined)", "units-of-measure": "%", "growth inhibition": -5}
{"molecule": "CCCCCCC(O)CCOC(C)=O (centres undefined)", "units-of-measure": "%", "growth inhibition": 2}
{"molecule": "CC(=O)O[C@H]1CC[C@@]2(C)C(CC[C@]3(C)C2CC=C2[C@@H]4CC(C)(C)CC[C@]4(C(=O)NCCN(C)C)CCC23C)C1(C)C (some centres undefined)", "units-of-measure": "%", "growth inhibition": -4}
{"molecule": "CC(C)c1cc2c(cc1O)C(O)C1(O)CCCC(C)(C)[C@H]1CC2 (some centres undefined)", "units-of-measure": "%", "growth inhibition": -11}
{"molecule": "COc1ccc(-c2c(-c3ccccc3)c(C)nc3nc(SC)nc(SC)c23)cc1OC", "units-of-measure": "%", "growth inhibition": -2}

Ask | Given the entry O=C(Nc1cc(-c2ccccc2)[nH]n1)c1ccccc1 , report its measured growth inhibition.
Reply | 23

----------
Entries and their growth inhibition values follow.
- protocol-text: NCI Yeast Anticancer Drug Screen. Data for the rad50 strain (AID 155);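 also: 0% = growth of vehicle-only cultures of the same strain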
- settings: S. cerevisiae rad50 strain growth inhibition; at 50.0 µM (retest, dose inferred, filed as 5.0); stronger effect = higher value
The panel holds about 79,000 compounds, 15% with a hit somewhere; the sample as a whole holds those more often.
// return numeric value only (unit: %, not printed)

Worked set:
{"molecule": "NNc1nc(Nc2ccccc2)nc(Nc2ccccc2)n1", "observed": 93}
{"molecule": "OCCN1COc2cc3c(cc2C1)OCN(CCO)C3", "observed": 11}
{"molecule": "COc1ccc2c(c1)n([O-])c1cc(C#N)ccc1[n+]2=O", "observed": 97}
{"molecule": "Cc1cc(N=[N+]=[N-])c2cc(C3CCCCC3)ccc2n1", "observed": 99}
{"molecule": "Nc1ccc(S(=O)(=O)NCc2nccs2)cc1", "observed": 81}

Ask | Given the entry Cc1[nH]n(C(N)=S)c(=O)c1N=Nc1ccc([N+](=O)[O-])cc1 , report its measured growth inhibition.
Reply | 35

Ask | Given the entry CCN(CC)CCCOC(=O)C(c1ccccc1)C1CCCCC1 (configuration not stated) , report its measured growth inhibition.
Reply | 63

Ask | Given the entry C=C1CC/C=C(/C(=O)O)CC[C@H]2[C@@H]1CC2(C)C , report its measured growth inhibition.
Reply | 58

Ask | Given the entry CC1=C(C)C(N2CCOCC2)CS(=O)(=O)O1 (configuration not stated) , report its measured growth inhibition.
Reply | 0

Ask | Given the entry CCCCCCCCN(CCCCCCCC)C(=O)C(C)O (configuration not stated) , report its measured growth inhibition.
Reply | 98

Ask | Given the entry Oc1ccc(Cl)cc1Cc1cc(Cl)cc(Cc2cc(Cl)ccc2O)c1O , report its measured growth inhibition.
Reply | 97

Ask | Given the entry O=C(CC(c1ccccc1)N1CCCCC1)OC1c2ccccc2-c2ccccc21 (configuration not stated) , report its measured growth inhibition.
Reply | 28

----------
- protocol-text: NCI Yeast Anticancer Drug Screen. Data for the cln2 rad14 strain (AID 165);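 also: 0% = growth equal to vehicle treated cultures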
- settings: S. cerevisiae cln2 rad14 strain, at 50.0 µM (retest, dose inferred, filed as 5.0)
About 79,000 compounds went through this panel and 15% of them were active in at least one assay; those are over-represented in the sample as a whole. Calls of active or inactive are those of the source. Rule as the data show it: active = growth inhibition above about 70%; inactive = the rest.
# output must be one of active, inactive

{"compound": "CN(C)CC(CN(C)C)C(=O)c1ccc2c(c1)OCO2", "category": "inactive"}
{"compound": "COc1ccccc1NC(=O)CC(=O)N1N=C(c2ccccc2)C(N=Nc2ccc(Cl)cc2)C1=O (stereo unspecified)", "category": "inactive"}
{"compound": "CCC1([N+](=O)[O-])COC(c2ccc3c(c2)OCO3)OC1 (stereo unspecified)", "category": "inactive"}
{"compound": "O=c1sc(=S)[nH]c2ccccc12", "category": "inactive"}
{"compound": "c1ccc(-c2cc(Nc3ccc4c(c3)OCO4)c3cc(C4CCCCC4)ccc3n2)cc1", "category": "active"}
{"compound": "Cc1ccccc1C1SCc2nc3ccccc3n21 (stereo unspecified)", "category": "inactive"}
{"compound": "CC(C)c1cc2c(cc1O)C(O)C1(O)CCCC(C)(C)[C@H]1CC2 (stereo partly specified)", "category": "active"}
{"compound": "O=C(N/C(=C\\c1ccc(Oc2ccc(Cl)c(Cl)c2)cc1)c1nc2ccccc2[nH]1)c1ccccc1", "category": "inactive"}

Ask | Could you check what this test reported for CC1=C(C)C(=O)C(C(C)(C)CC(=O)n2cc(F)c(=O)[nH]c2=O)=C(C)C1=O ?
Reply | inactive

Ask | Could you check what this test reported for O=[N+]([O-])CCc1ccco1 ?
Reply | inactive

Ask | Could you check what this test reported for CC1=C(C)C(N2CCOCC2)CS(=O)(=O)O1 (stereo unspecified) ?
Reply | inactive

----------
- protocol-text: NCI Yeast Anticancer Drug Screen. Data for the mec2-1 strain (AID 157)
- settings: S. cerevisiae mec2-1 strain, at 5.0 µM (retest, dose inferred, filed as 0.5), stronger effect = higher value
The panel holds about 79,000 compounds, 15% with a hit somewhere; the sample as a whole holds those more often. The source made the active and inactive calls. No stated cut-off is given here; in the data, active means growth inhibition above about 70%; inactive means the rest.
measurement-type: growth inhibition

Worked set:
{"compound": "Cc1noc(NS(=O)(=O)c2ccc(N=Nc3cc(N=Nc4ccc(S(=O)(=O)Nc5onc(C)c5C)cc4)c4c(NC(=O)C(Cl)Cl)cccc4c3O)cc2)c1C (tested in a mixture with another compound)", "observed": "97% (active)"}
{"compound": "Cc1cc(N/N=C(\\c2ccccc2)c2ccccn2)nc2ccccc12", "observed": "10% (inactive)"}
{"compound": "S=c1sc2ccccc2n1C=Nc1ccccc1", "observed": "-5% (inactive)"}
{"compound": "Cc1ccc(NN(C)c2ccc(C)cc2)cc1", "observed": "-1% (inactive)"}
{"compound": "Cc1ccc(C2C(O)=C(c3ccccc3)Sc3ccc(C)cc32)cc1 (centres undefined)", "observed": "-5% (inactive)"}

Ask | Given the entry COc1cc(/C=C2\Sc3scc(-c4cccc([N+](=O)[O-])c4)[n+]3C2=O)cc(OC)c1OC , report its measured growth inhibition.
Reply | -1% (inactive)

Ask | Given the entry Clc1ccc(/C=N\Nc2ccccc2)c(Cl)c1 , report its measured growth inhibition.
Reply | 1% (inactive)

Ask | Given the entry CC12C(=O)N(CC(=O)O)C(=O)C1(C)C1c3ccccc3C2c2ccc3ccccc3c21 (centres undefined) , report its measured growth inhibition.
Reply | 1% (inactive)

Ask | Given the entry CC(=O)NCC1OC2COC(c3ccccc3)OC2C(NC(=O)c2ccccc2)C1OC(=O)c1ccccc1 (centres undefined) , report its measured growth inhibition.
Reply | 15% (inactive)

----------
- protocol-text: NCI Yeast Anticancer Drug Screen. Data for the mec2-1 strain (AID 157)
- settings: S. cerevisiae mec2-1 strain, at 5.0 µM (retest, dose inferred, filed as 0.5), stronger effect = higher value
About 79,000 compounds went through this panel and 15% of them were active in at least one assay; those are over-represented in the sample as a whole.
Entries and their growth inhibition values follow.
// return numeric value only (unit: %, not printed)

Worked set:
{"compound": "C=C(C)COc1ccccc1C(OCC)OCC", "growth inhibition [%]": 7}
{"compound": "COc1ccc(/C=C/c2ccnc3ccccc23)cc1OC", "growth inhibition [%]": 2}
{"compound": "Fc1ccc2nncc(SCc3ccccc3)c2c1", "growth inhibition [%]": 10}
{"compound": "COc1cccc2nc3c(C(=O)NCCN(C)C)cccc3cc12", "growth inhibition [%]": 15}
{"compound": "O=C(CCCN1CCC2(CC1)CC(c1ccccc1)OC2=O)c1ccc(F)cc1 (configuration not stated)", "growth inhibition [%]": 33}

Ask | Given the entry CCOC(=O)N/N=C/c1ccc([N+](=O)[O-])o1 , report its measured growth inhibition.
Reply | 2

Ask | Given the entry CC1CCN(CCOC(=O)C(c2ccccc2)C2C=CCCC2)C1C (configuration not stated) , report its measured growth inhibition.
Reply | 45

Ask | Given the entry COc1ccc(-c2cc(-c3ccc4c(c3)CC(C)O4)nc(N)n2)cc1 (configuration not stated) , report its measured growth inhibition.
Reply | 0
